Parameter pIC50: see the listing below.
# Tested on: Plasmodium cynomolgi
# protocol_description: Antiplasmodial activity against hypnozoite Plasmodium cynomolgi B strain infected in Macaca mulatta hepatocytes incubated with sporozoite containing salivary gland homogenate obtained from dissected Anopheles dirus mosquitoes (infected with Plasmodium cynomolgi B strain) treatment started on day 4 post infection and continued daily for 4 days into fresh changed media until day 8 assessed as Liver stage (LS) activity by measuring radical cure mode by immunofluorescent staining analysis
# Type: functional, organism-based
# measurement_parameters: Hepatocyte
pIC50: −log10 of the molar value.
measurement_kind: pIC50

compound	bound_operator	meas_value
O=c1c2ccc(Oc3ccc(OC(F)(F)F)cc3)cc2[nH]c2ccc(Cl)c(F)c12	=	5.39
O=c1c2ccc(Oc3ccc(OC(F)(F)F)cc3)cc2[nH]c2cc(F)c(Cl)cc12	<	4.70
COc1ccc(Oc2ccc3c(=O)c4c(F)cc(Cl)cc4[nH]c3c2)cc1	=	5.22
O=c1c2c([nH]c3cc(Oc4ccc(OC(F)(F)F)cc4)ccc13)CCCC2	=	6.26
O=c1c2ccc(Oc3cccc(C(F)(F)F)c3)cc2[nH]c2cc(F)c(Cl)cc12	<	4.70
O=c1c2ccc(OCc3cccc(OC(F)(F)F)c3)cc2[nH]c2cc(Cl)cc(F)c12	=	6.15
O=c1c2c([nH]c3ccc(Oc4ccc(OC(F)(F)F)cc4)cc13)CCCC2	<	4.70
CO[C@@H]1[C@@H](OC)[C@H](C)[C@@](O)(CC(=O)O)O[C@H]1[C@H](C)[C@H]1O[C@@]2(CC[C@@](C)([C@H]3CC[C@@](C)([C@@H]4O[C@@H]([C@H]5O[C@](C)(O)[C@H](C)C[C@@H]5C)C[C@@H]4O[C@@H]4C[C@H](OC)[C@@H](OC)[C@H](C)O4)O3)O2)C[C@H](O)[C@H]1C	=	7.52
CC(C)(C)OC(=O)N1CCC(Oc2ccc3c(=O)c4c(F)cc(Cl)cc4[nH]c3c2)CC1	=	5.75
CCCN(CCC)CCCOc1ccc2c(=O)c3c([nH]c2c1)CCCC3	<	4.70
O=c1c2cc(F)c(Oc3ccc(OC(F)(F)F)cc3)cc2[nH]c2cc(Cl)cc(F)c12	=	6.25
O=c1c2ccc(Oc3cccc(OC(F)(F)F)c3)cc2[nH]c2cc(F)c(Cl)cc12	<	4.70
O=c1c2c([nH]c3c(Oc4ccc(OC(F)(F)F)cc4)cccc13)CCCC2	<	4.70
CCCCN(CCCC)CCCOc1ccc2c(=O)c3c([nH]c2c1)CCCC3	<	4.70
O=c1c2ccc(OCc3cccc(OC(F)(F)F)c3)cc2[nH]c2cc(F)cc(Cl)c12	=	5.37
O=c1c2ccccc2[nH]c2cc(Oc3ccc(OC(F)(F)F)cc3)ccc12	=	5.52
COc1cc(C)c2c(Oc3cccc(C(F)(F)F)c3)c(OC)cc(NC(C)CCCN)c2n1 (stereo not drawn)	=	5.11
CC(C)(C)OC(=O)N1CCC(Oc2ccc3c(=O)c4c(Cl)cc(F)cc4[nH]c3c2)CC1	=	5.35
O=c1c2ccc(Oc3ccccc3OC(F)(F)F)cc2[nH]c2cc(Cl)cc(F)c12	=	5.34
CCCCCCOc1ccc2c(=O)c3c([nH]c2c1)CCCC3	<	4.70
O=c1c2ccc(Oc3cccc(OC(F)(F)F)c3)cc2[nH]c2cc(Cl)cc(F)c12	<	4.70
CN(C)CCOc1ccc2c(=O)c3c([nH]c2c1)CCCC3	<	4.70
CN1CCC(Oc2ccc3c(=O)c4c(F)cc(Cl)cc4[nH]c3c2)CC1	=	4.74
O=c1c2c([nH]c3cccc(Oc4ccc(OC(F)(F)F)cc4)c13)CCCC2	=	5.42
O=c1c2c(F)cc(Cl)cc2[nH]c2cccc(Oc3ccc(OC(F)(F)F)cc3)c12	<	4.70
CCCN(CCC)CCNc1ccc2c(=O)c3c([nH]c2c1)CCCC3	<	4.70
O=c1c2c([nH]c3cc(Oc4cccc(OC(F)(F)F)c4)ccc13)CCCC2	=	5.10
O=c1c2c([nH]c3cc(Nc4ccc(OC(F)(F)F)cc4)ccc13)CCCC2	=	5.89
O=c1c2cc(Oc3ccc(OC(F)(F)F)cc3)ccc2[nH]c2cc(Cl)cc(F)c12	<	4.70
O=c1c2ccc(OCc3cccc(OC(F)(F)F)c3)cc2[nH]c2ccc(Cl)c(F)c12	=	5.71
O=c1c2c([nH]c3cc(Oc4ccccc4OC(F)(F)F)ccc13)CCCC2	<	4.70
O=c1c2ccc(Oc3ccc(OC(F)(F)F)cc3)cc2[nH]c2cc(Cl)c(F)cc12	<	4.70
CCN(CC)CCOc1ccc2c(=O)c3c([nH]c2c1)CCCC3	<	4.70
CCN(CC)CCCOc1ccc2c(=O)c3c([nH]c2c1)CCCC3	<	4.70
CCCN(CCC)CCOc1ccc2c(=O)c3c([nH]c2c1)CCCC3	<	4.70
O=c1c2c([nH]c3cc(Oc4ccc(OC(F)(F)F)cc4)c(F)cc13)CCCC2	=	5.68
O=c1c2ccc(Oc3ccc(OC(F)(F)F)cc3)cc2[nH]c2ccc(F)c(Cl)c12	=	5.17
O=c1c2c([nH]c3cc(OCc4ccc(OC(F)(F)F)cc4)ccc13)CCCC2	<	4.70
